# Test system: MS2 coat protein
# test name: apparent KD of MS2 coat protein; designed switch direction (-1 OFF switch, 1 ON switch): -1; higher = weaker reporter binding
# run parameters: input ligand: none
Readings of apparent KD of MS2 coat protein for the listed sequences
measured metric: apparent KD of MS2 coat protein (nM)

INSERT INTO results (sequence_code, observed_measurement) VALUES
  ('CGCUGGUGAGGAUAUGGGUGUUUUUACAUGAGGAUCACCCAUGUGGAGUAGCAUGUGGGUCCAGAAGGCGCGGGUG [-24.2, -22.5 kcal, 20% A] (Eterna round: R97, puzzle: Exclusion 5)', 435),
  ('UCGAUGUGAGGAUAUAUAUGCAGUAGUCCUUAUGUUUUAUAACUUGAGGAUCACCCAAGUAGAAGGCGCGACGU [JR_Ex2_Sub060] (Eterna round: R97, puzzle: Exclusion 2)', 39.5),
  ('UCAUGGAAGCAGGAUAUGCUUGUUUAAUUGUUUGCAGAAGGGCUAACAUGAGGAUCACCCAUGUAAGAGGUCUA [JR_E6_Sub063] (Eterna round: R96, puzzle: Exclusion 6)', 72.5);
